- System: NCI/ADR-RES ovarian
- experiment-summary: NCI-60 one-dose screen, 48 h
- cond: 10 µM unless noted
About 83,000 compounds went through this panel and 20% of them were active in at least one assay; those are over-represented in the sample as a whole. Calls of active or inactive are those of the source. The calls were made as follows: active = growth percent below 10; inactive = the rest.
Classes used: active, inactive

Cc1ccc(C(=O)CSc2nnc(-c3ccc(-c4ccc(Cl)cc4)nc3C)o2)cc1 : inactive
N#Cc1nc(-c2ccccc2)oc1N1CCC(C2(C(F)(F)F)N=N2)CC1 : inactive
CN(C)S(=O)(=O)c1ccc(-c2nc(C(Cl)Cl)nc3cc(-c4ccccc4)nn23)cc1 : inactive
NC(=O)c1c(NC(=O)c2ccc(C(F)(F)F)cc2)sc2c1CCC(=O)C2 : active
Clc1ccc2[nH]cc(-c3cncn3CCc3ccc4c(c3)OCO4)c2c1 : inactive
N#Cc1c(-c2cccs2)cc(-c2cnccn2)nc1SCC(=O)N/N=C/c1ccccc1 : inactive
NC1=NC2(CCCC2)N(c2ccc(S(=O)(=O)Nc3nccs3)cc2)C(N)=N1 : inactive
O=C(/C=C/c1cccc(F)c1)c1cccc(OCCCOc2cccc(C(=O)/C=C/c3cccc(F)c3)c2)c1 : inactive
CCCCCCNC(=O)Oc1ccc(/C(=C(/C)c2ccc(Cl)cc2)c2ccc(OCCN3CCCCCC3)cc2)cc1 : inactive
Cc1ccc(Nc2nc(SC(C)C)nc(-c3ccccc3)c2C#N)cc1 : inactive
O=C(CSc1nc2ccccc2c(=O)n1-c1ccc(Cl)c(Cl)c1)Nc1ccc(S(=O)(=O)Nc2ccc(Cl)nn2)cc1 : inactive
NC(=O)n1c(=O)n(-c2cccc(C(F)(F)F)c2)c(=O)c2cc(-c3ccc(F)cc3F)ccc21 : active
COc1ccc2c(c1)c(-c1nc(N)nnc1-c1c[nH]c3ccccc13)cn2C : inactive
COC(=O)CCSC1=C(C)C(=O)c2ccccc2C1=O : inactive
NS(=O)(=O)c1ccc(Nc2nc(N/N=C/c3ccc4c(c3)OCO4)nc(Nc3ccccc3)n2)cc1 : inactive
O=C(CSc1nc2ccccc2c(=O)n1-c1ccccc1)Nc1ccc(S(=O)(=O)Nc2nccs2)cc1 : inactive
CCNC(=O)Oc1ccc(/C(=C(/C)c2ccc(OC)cc2)c2ccc(OCCN3CCCCCC3)cc2)cc1 : inactive
COc1ccc(-c2cc(-c3ccc(N(C)C)cc3)n3c(n2)nc2ccccc23)cc1 : inactive
C=C(C=O)[C@@H]1CC[C@]2(C(=O)O)CC[C@]3(C)C(CC[C@@H]4[C@@](C)(CCC#N)[C@H](C(=C)C=O)CC[C@]43C)[C@@H]12 (some centres not stated) : active
COc1ccccc1/C=C/C(=O)c1nnn(-c2ccc(F)cc2)c1C : inactive
Cc1ccccc1N1CCN(C2=C(Cl)C(=O)c3ncccc3C2=O)CC1 : inactive
N#Cc1c(-c2cccs2)cc(-c2cnccn2)nc1SCC(=O)N/N=C/c1cccs1 : inactive
COc1cc2cc(Oc3ccc(NC(=O)c4cc(C(F)(F)F)cc(C(F)(F)F)c4)cc3)c(C)nc2cc1OCCN1CCOCC1 : inactive
O=C(CSc1nc2ccccc2c(=O)n1-c1ccccc1)N/N=C/c1ccc(Oc2ccc(Br)cc2)cc1 : inactive
C#CCOc1ccccc1C(OC(=O)c1ccccc1)C(=O)NC(C)(C)C(C)(C)C (configuration not stated) : inactive
C#CCOc1ccc(-c2csc(NC(=O)C=C)n2)cc1NS(=O)(=O)c1cccc2c(N(C)C)cccc12 : inactive
NNc1nnc2nc(Nc3ccccc3)nc(Nc3ccc(S(N)(=O)=O)cc3)n12 : inactive
O=C1Nc2ccccc2/C1=C/c1ccc(OCC(=O)c2ccccc2)cc1 : inactive
COCCOc1ccc2ncc(C#Cc3cncc(C(=O)Nc4ccc(CN5CCN(C)CC5)c(C(F)(F)F)c4)c3)n2n1 : active
NS(=O)(=O)c1ccc(CCn2c(-c3ccc(C(=O)O)cc3)nc(-c3ccccc3)c2-c2ccccc2)cc1 : inactive
CCOC(=O)c1c(NC(=O)c2cccc(C(F)(F)F)c2)sc2c3c(ccc12)OCN(C)C3 : active
Brc1ccc2[nH]cc(-c3nn4cc(-c5nccs5)nc4s3)c2c1 : inactive
COc1ccc2c(c1)c(-c1nnc(N)nc1-c1c[nH]c3ccc(F)cc13)cn2C : inactive
O=C(CSc1nc2ccccc2c(=O)n1-c1ccccc1)N/N=C/c1ccc(Oc2ccc(Cl)cc2)cc1 : inactive
Cc1c(C(=O)/C=C/c2ccc(Cl)cc2)nnn1-c1ccc2oc(=O)ccc2c1 : inactive
CN1CCN(c2ccc(Nc3nc(NCCCNS(=O)(=O)c4cccc(F)c4)c4sccc4n3)cc2)CC1 : inactive
COc1cc(C(=O)c2cc(C(C)=O)c3ccc(C)cn23)cc(OC)c1OC : inactive

====

- System: CCRF-CEM leukemia
- experiment-summary: NCI-60 one-dose screen, 48 h
- cond: 10 µM unless noted
Compounds without any hit were thinned out: in the full panel of roughly 83,000, 20% have a hit. Active and inactive are the calls of the source. Rule for the calls: active = growth percent below 10; inactive = the rest.
Classes used: active, inactive

N#Cc1c(-c2cccs2)cc(-c2cnccn2)nc1SCC(=O)N/N=C/c1cccs1 : inactive
O=C(Nc1ccc(N=Cc2c(O)[nH]c3ccccc23)cc1)Nc1ccc(S(=O)(=O)Nc2ncccn2)cc1 : inactive
CCNCCOc1ccc(/C(=C(/CC)c2ccc(Cl)cc2)c2ccc(OCCCN(C)C)cc2)cc1 : active
COc1cc(NC(=O)Nc2cccc(-c3cc(=O)c4c(OC)c(OC)c(OC)cc4o3)c2)cc(OC)c1OC : inactive
N#C/C(=C\c1cccc2c1OCO2)C(=O)Nc1sc2c(c1C#N)CCCC2 : inactive
O=C(/C=C/c1ccccc1Cl)Nc1ncc(Cc2cc(Cl)ccc2Cl)s1 : inactive
C/C(=N/N)c1nnn(-c2ccc(Br)cc2)c1C : inactive
CC(C)(C)c1cc(NC(=O)Nc2ccc(-c3cn4c5c(sc4n3)CCc3cn(CCCN4CCCCC4)cc3-5)cc2)no1 : active
O=C(CCCCCCN1CC(=O)N2[C@@H](C3CC3)c3[nH]c4ccccc4c3C[C@H]2C1=O)NO : inactive
C#CCOc1cccc(-c2nc(N)nc(Nc3ccccc3SSc3ccccc3Nc3nc(N)nc(-c4cccc(OCC#C)c4)n3)n2)c1 : inactive
CN1CCN(Cc2ccc(NC(=O)c3cncc(C#Cc4cnc5ccc(OCC(F)F)nn45)c3)cc2C(F)(F)F)CC1 : active
Cc1[nH]c(C(=O)Nc2ccccc2OCc2cccc(C(=O)NC3CCNC3)c2)c(Cl)c1Cl (centres undefined) : active
CC(C)[C@H]1c2[nH]c3ccccc3c2C[C@H]2C(=O)N(CCCCCCC(=O)NO)CC(=O)N12 : inactive
Cc1ccc(C)c(NC2=C(Cl)C(=O)c3nc(C)ccc3C2=O)c1 : active
C#CCN(C)CCCOc1ccc(NCc2ccc(C(=O)NO)cc2)cc1Cl : inactive
Cc1ccc(C(=O)Nc2ccc(CNCCN3CCOCC3)c(C(F)(F)F)c2)cc1C#Cc1cnc2cccnn12 : inactive
COc1ccc([C@H]2C(=O)N(c3cc(OC)c(OC)c(OC)c3)[C@@H]2c2ccc(OC)c(O)c2)cc1 : inactive
O=C(Nc1cccc(C(F)(F)F)c1)N1CCN(c2cc(-c3cn(-c4ccccc4)nc3-c3cccc(O)c3)ccn2)CC1 : inactive
O=C(CSc1nnc(-c2cccs2)n1-c1ccccc1)Nc1ccccc1F : inactive

====

- Tested on: SF-295 CNS
- experiment-summary: NCI-60 one-dose screen, 48 h (100 = growth as untreated, 0 = no growth, -100 = all killed)
- cond: 10 µM unless noted
This is part of a sample that, as a whole, favours compounds with a hit. Of some 83,000 tested, about 20% had one in any assay.
experimental-readout: growth (%)

CN1CCN(c2ccc(Nc3nc(NCCCNS(=O)(=O)c4ccccc4)c4sccc4n3)cc2)CC1 : 38.4
CSc1ccc(/C(=N/N=C(N)N)c2ccc(Cl)cc2)cc1 : 8.73
Clc1ccc2[nH]cc(-c3nn4cc(-c5cccnc5)nc4s3)c2c1 : 96.7
CS(=O)(=O)c1ccc(/C(=N/N=C(N)N)c2ccc(F)cc2)cc1 : 71
O=S(=O)(NCCCNc1nccc(-c2[nH]c(-c3ccccc3)nc2-c2ccc(F)c(O)c2)n1)c1cccc2ccccc12 : 45.7
CCc1cc2c(cc1Cl)nc1c(=O)[nH]c(=O)nc-1n2CCOCC(C)C : 60
CSc1ccc(C(=NNS(=O)(=O)c2ccc(C)cc2)c2ccc(Cl)cc2)cc1 : 96.9
Cn1cc(-c2nnc(N)nc2-c2c[nH]c3ccc(Br)cc23)c2cc(Br)ccc21 : 100
CC(=O)Nc1nc(C)c(-c2csc(Nc3ccccc3)n2)s1 : 11.9
C#CCn1cc(/C=N/Nc2nc(-c3ccc(Br)cc3)cs2)c2ccccc21 : 97.6

====

- Tested on: HCT-15 colon
- experiment-summary: NCI-60 one-dose screen, 48 h
- cond: 10 µM unless noted
Compounds without any hit were thinned out: in the full panel of roughly 83,000, 20% have a hit. Calls of active or inactive are those of the source. The calls were made as follows: active = growth percent below 10; inactive = the rest.
Classes used: 1 = active, -1 = inactive

Cc1csc(/N=C(N)/N=C(\N)c2cccc(Br)c2)n1 : -1
Nn1c(=O)n(-c2cccc(C(F)(F)F)c2)c(=O)c2cc(-c3ccc(F)cc3F)ccc21 : -1
COc1cc(OC)cc(-c2cc(-c3c[nH]c4ccccc34)nc(-c3c[nH]c4ccccc34)c2C#N)c1 : -1
O=C(COc1ccc(/C=C2\C(=O)Nc3ccc(Cl)cc32)cc1)Nc1ccc(Cl)cc1 : -1
COc1ccc2c(c1)c(-c1nn3cc(-c4ccncc4)nc3s1)cn2C : -1
Cc1cc2nc3c4cc(C#N)ccc4n(CCN(C)C)c3nc2cc1C : 1
CC(C)(O)c1cncc(-c2ccc3ncc(C#N)c(N4CCc5cc(F)c(Cl)cc54)c3c2)c1 : 1
Cc1ccc2c(n1)C(=O)C(Cl)=C(Nc1ccc(C(=O)OC(C)(C)C)cc1)C2=O : 1
CCOC(=O)c1c(NC(=O)c2cccc(C(F)(F)F)c2)sc2c3c(ccc12)OCN(C)C3 : 1
